We begin with a simple list: items and their reported inhibition at 1 µM.
Study target: human norepinephrine transporter (Homo sapiens)
Construct: expressed in transfected cells
Run description: Inhibitory action on human norepinephrine transporter ([3H]-norepinephrine uptake in CHO cells)
Type: cell-based
Stated conditions: CHO, read-out: inhibitory rate (%), compound 1 μM; relative to inhibitory activity of 10 μM DMI as 100%
Structures can show the parent of a compound that is named as a salt.
Kindly provide the numeric value in % only, without the unit symbol.

Use these answered entries as a reference point.
• NC(=O)NC[C@H]1CNCCO[C@@H]1c1ccc(Cl)c(Cl)c1 [Example 153, monofumarate] = 95
• OC[C@@]1(c2ccc(Cl)c(Cl)c2)CCNCCO1 [Example 47, monohydrochloride] = 99

Noted for OCC1CNCCOC1c1ccc(Cl)c(Cl)c1 (stereo not shown) [Example 48] : its inhibition at 1 µM reads 99

====

Study target: human serotonin transporter (Homo sapiens)
Construct: expressed in transfected cells
Sequence (P31645 whole entry): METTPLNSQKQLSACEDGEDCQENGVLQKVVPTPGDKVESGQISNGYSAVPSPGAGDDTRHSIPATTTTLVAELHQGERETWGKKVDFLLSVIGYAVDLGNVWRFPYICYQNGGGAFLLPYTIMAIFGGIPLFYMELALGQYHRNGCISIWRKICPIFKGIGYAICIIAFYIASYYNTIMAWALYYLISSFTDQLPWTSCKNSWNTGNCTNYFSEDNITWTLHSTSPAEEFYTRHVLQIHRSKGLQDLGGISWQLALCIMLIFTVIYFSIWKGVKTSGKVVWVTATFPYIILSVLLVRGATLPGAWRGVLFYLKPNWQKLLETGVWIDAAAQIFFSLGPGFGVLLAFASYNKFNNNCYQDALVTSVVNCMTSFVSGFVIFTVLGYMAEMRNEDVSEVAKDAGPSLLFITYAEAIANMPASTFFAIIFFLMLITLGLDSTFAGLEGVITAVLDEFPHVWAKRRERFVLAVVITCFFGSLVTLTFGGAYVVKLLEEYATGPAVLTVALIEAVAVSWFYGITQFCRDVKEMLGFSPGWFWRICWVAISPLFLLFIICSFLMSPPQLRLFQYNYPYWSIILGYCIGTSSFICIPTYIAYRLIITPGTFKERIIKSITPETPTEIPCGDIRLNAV
Run description: Inhibitory action on human serotonin transporter ([3H]-5-hydroxytryptamine uptake in CHO cells)
Format: cell-based
Stated conditions: CHO, compound 1 μM; relative to inhibitory activity of 10 μM Paroxetine as 100%; read-out: inhibitory rate (%)
Structures can show the parent of a compound that is named as a salt.
Measured property: inhibition at 1 µM

• COC1(c2ccc(Cl)c(Cl)c2)CNCCOC1 (racemic) [Example 17, monohydrochloride] = 70%
• O[C@H]1CNCCO[C@@H]1c1ccc(Cl)c(Cl)c1 (racemic) [Example 230, monohydrochloride] = 59%
• CO[C@]1(CNS(C)(=O)=O)CNCCO[C@@H]1c1ccc(Cl)c(Cl)c1 (racemic) [Example 523, monohydrochloride] = 64%

Would you kindly look at the next entry?
Noted for CS(=O)(=O)NCCC[C@@H]1OCCNC[C@H]1c1ccc(Cl)c(Cl)c1 (racemic) [Example 520, monohydrochloride] : its inhibition at 1 µM reads 84%

====

We begin with a simple list: items and their reported inhibition at 1 µM.
Study target: human norepinephrine transporter (Homo sapiens, UniProt P23975)
Construct: expressed in transfected cells
Sequence (P23975 whole entry): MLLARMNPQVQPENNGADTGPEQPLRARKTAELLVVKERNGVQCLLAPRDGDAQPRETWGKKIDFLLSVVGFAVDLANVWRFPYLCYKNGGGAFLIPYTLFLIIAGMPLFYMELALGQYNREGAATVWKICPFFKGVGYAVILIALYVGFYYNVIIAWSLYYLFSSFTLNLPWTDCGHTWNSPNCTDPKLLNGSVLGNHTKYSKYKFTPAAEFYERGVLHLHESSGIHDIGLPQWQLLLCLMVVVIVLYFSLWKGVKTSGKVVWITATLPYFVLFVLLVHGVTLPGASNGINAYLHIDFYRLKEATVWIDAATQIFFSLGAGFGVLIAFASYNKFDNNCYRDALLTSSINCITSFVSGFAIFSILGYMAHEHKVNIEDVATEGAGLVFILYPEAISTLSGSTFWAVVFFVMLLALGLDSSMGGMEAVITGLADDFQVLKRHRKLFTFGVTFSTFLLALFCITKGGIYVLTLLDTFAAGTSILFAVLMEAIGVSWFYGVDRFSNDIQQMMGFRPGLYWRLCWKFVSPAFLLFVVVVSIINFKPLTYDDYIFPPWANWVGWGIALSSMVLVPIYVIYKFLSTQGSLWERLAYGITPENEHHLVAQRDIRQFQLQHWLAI
Run description: Inhibitory action on human norepinephrine transporter ([3H]-norepinephrine uptake in CHO cells)
Format: cell-based
Stated conditions: CHO, compound 1 μM; relative to inhibitory activity of 10 μM DMI as 100%; read-out: inhibitory rate (%)
Counter-ions that a name gives are not always drawn.
Kindly provide the numeric value in % only, without the unit symbol.

- O=S(=O)(NC[C@H]1OCCNC[C@H]1c1ccc(Cl)c(Cl)c1)C(F)F [Example 470, monohydrochloride]: 103
- Cc1nnc(-c2cccnc2O[C@@H]2CNCCO[C@H]2c2ccc(Cl)c(F)c2)[nH]1 [Example 568, monohydrochloride]: 103

Noted for CCNC(=O)NC[C@@H]1CNCCO[C@@H]1c1ccc(Cl)c(Cl)c1 (racemic) [Example 52, monohydrochloride] : its inhibition at 1 µM reads 97

Noted for OC[C@H]1CNCCO[C@@H]1c1cc2ccccc2s1 (racemic) [Example 410, monohydrochloride] : its inhibition at 1 µM reads 103

Noted for O=C(O)c1ccnn1C[C@@H]1CNCCO[C@H]1c1ccc(Cl)c(Cl)c1 [Example 181, monohydrochloride] : its inhibition at 1 µM reads 100

Noted for CC(=O)N[C@@H]1CNCCO[C@@H]1c1ccc(Cl)c(Cl)c1 (racemic) [Example 62, monohydrochloride] : its inhibition at 1 µM reads 100

Noted for O=c1ccccn1C[C@@H]1CNCCO[C@H]1c1ccc(Cl)c(F)c1 [Example 42, monohydrochloride] : its inhibition at 1 µM reads 102

====

We begin with a simple list: items and their reported inhibition at 1 µM.
Study target: human norepinephrine transporter (Homo sapiens, UniProt P23975)
Construct: expressed in transfected cells
Run description: Inhibitory action on human norepinephrine transporter ([3H]-norepinephrine uptake in CHO cells)
Type: cell-based
Stated conditions: CHO, compound 1 μM; relative to inhibitory activity of 10 μM DMI as 100%; read-out: inhibitory rate (%)
Counter-ions that a name gives are not always drawn.
Kindly provide the numeric value in % only, without the unit symbol.

Noted for CS(=O)(=O)NC[C@H]1OCCNC[C@H]1c1ccc(Cl)c(Cl)c1 [Example 467, monohydrochloride] : its inhibition at 1 µM reads 102

Noted for O=c1[nH]c(-c2ncccc2O[C@@H]2CNCCO[C@H]2c2ccc(Cl)c(F)c2)no1 [Example 584] : its inhibition at 1 µM reads 107

Noted for O=C(O)c1cccnc1NC[C@@H]1CNCCO[C@H]1c1ccc(Cl)c(Cl)c1 [Example 176, monohydrochloride] : its inhibition at 1 µM reads 101

Noted for OCC(O)(CO)[C@@H]1OCCNC[C@H]1c1ccc(Cl)c(Cl)c1 [Example 491, monohydrochloride] : its inhibition at 1 µM reads 100

Noted for Cc1ccc(C2OCCNCC2CO)cc1Cl (centres unmarked) [Example 405] : its inhibition at 1 µM reads 100

Noted for CS(=O)(=O)NC[C@@H]1CNCCO[C@H]1c1ccc(Cl)c(Cl)c1 [Example 34, monohydrochloride] : its inhibition at 1 µM reads 96

Noted for CS(=O)(=O)C[C@@]1(O)CNCCO[C@@H]1c1ccc(Cl)c(F)c1 (racemic) [Example 538, monohydrochloride] : its inhibition at 1 µM reads 102

Noted for OCC1CNCCOC1c1ccc(Cl)c(F)c1 (centres unmarked) [Example 440] : its inhibition at 1 µM reads 105

====

Study target: human dopamine transporter (Homo sapiens, UniProt Q01959)
Construct: expressed in transfected cells
Sequence (Q01959 whole entry): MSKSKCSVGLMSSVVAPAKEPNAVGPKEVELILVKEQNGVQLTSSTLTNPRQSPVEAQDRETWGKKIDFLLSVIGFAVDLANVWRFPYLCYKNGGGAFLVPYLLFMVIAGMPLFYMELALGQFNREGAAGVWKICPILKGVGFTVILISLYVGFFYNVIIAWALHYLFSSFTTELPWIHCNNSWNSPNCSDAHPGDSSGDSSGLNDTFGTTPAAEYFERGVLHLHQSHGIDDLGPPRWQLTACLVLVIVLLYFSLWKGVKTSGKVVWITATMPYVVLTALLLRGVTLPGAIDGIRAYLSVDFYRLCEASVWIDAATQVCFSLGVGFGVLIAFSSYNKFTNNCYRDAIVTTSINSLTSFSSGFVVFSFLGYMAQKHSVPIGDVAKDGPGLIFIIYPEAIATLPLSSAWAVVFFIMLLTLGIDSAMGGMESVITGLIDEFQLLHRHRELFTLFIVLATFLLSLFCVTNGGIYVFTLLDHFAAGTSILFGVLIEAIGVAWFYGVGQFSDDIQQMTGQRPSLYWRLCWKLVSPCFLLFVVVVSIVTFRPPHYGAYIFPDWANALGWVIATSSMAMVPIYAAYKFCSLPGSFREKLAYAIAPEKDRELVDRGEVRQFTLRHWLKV
Run description: Inhibitory action on human dopamine transporter ([3H]-dopamine uptake in CHO cells)
Format: cell-based
Stated conditions: CHO, compound 1 μM; relative to inhibitory activity of 100 μM Nomifensine as 100%; read-out: inhibitory rate (%)
Structures can show the parent of a compound that is named as a salt.
Measured property: inhibition at 1 µM
Please answer using a numeric value trailed by its unit.

Use these answered entries as a reference point.
- O=C(NC[C@@H]1CNCCO[C@H]1c1ccc(Cl)c(Cl)c1)c1cccc(-c2noc(=O)[nH]2)c1 [Example 142, monohydrochloride]: 4%
- CS(=O)(=O)C[C@@H]1CNCCO[C@@H]1c1ccc(Cl)c(Cl)c1 (racemic) [Example 50, monohydrochloride]: 64%
- OC[C@H]1OCCNC[C@H]1c1ccc(Cl)c(Cl)c1 (racemic) [Example 25, monohydrochloride]: 46%
- OCC(O)(CO)[C@@H]1OCCNC[C@H]1c1ccc(Cl)c(Cl)c1 [Example 491, monohydrochloride]: 77%
- Cc1ccc([C@H]2OCCNC[C@@H]2CNS(C)(=O)=O)cc1Cl (relative stereo) [Example 409, monohydrochloride]: 24%

Tested on human dopamine transporter (Homo sapiens, UniProt Q01959): OC[C@@H]1OCCNC[C@H]1c1ccc(Cl)c(Cl)c1 [Example 488, monohydrochloride] . Observed inhibition at 1 µM: 37%

Tested on human dopamine transporter (Homo sapiens, UniProt Q01959): OC[C@@H]1CNCCO[C@@H]1c1ccc(F)c(Cl)c1 (racemic) [Example 278, monohydrochloride] . Observed inhibition at 1 µM: 13%

Tested on human dopamine transporter (Homo sapiens, UniProt Q01959): O=c1[nH]c(-c2cccn(C[C@@H]3CNCCO[C@H]3c3ccc(Cl)c(Cl)c3)c2=O)no1 [Example 31, monohydrochloride] . Observed inhibition at 1 µM: 33%

Tested on human dopamine transporter (Homo sapiens, UniProt Q01959): O=C(CC(F)(F)F)NC[C@@H]1CNCCO[C@H]1c1ccc(Cl)c(F)c1 [Example 314, monohydrochloride] . Observed inhibition at 1 µM: 11%

====

Study target: human dopamine transporter (Homo sapiens, UniProt Q01959)
Construct: expressed in transfected cells
Run description: Inhibitory action on human dopamine transporter ([3H]-dopamine uptake in CHO cells)
Assay type: cell-based
Stated conditions: CHO, compound 1 μM; relative to inhibitory activity of 100 μM Nomifensine as 100%; read-out: inhibitory rate (%)
Structures can show the parent of a compound that is named as a salt.
We begin with a simple list: items and their reported inhibition at 1 µM.
Kindly provide the numeric value in % only, without the unit symbol.

Use these answered entries as a reference point.
• CS(=O)(=O)N[C@@H]1CNCCO[C@@H]1c1ccc(Cl)c(Cl)c1 (racemic) [Example 63, monohydrochloride] = 82
• O=C(CO)NC[C@@H]1CNCCO[C@H]1c1ccc(Cl)c(F)c1 [Example 315, monohydrochloride] = 13
• O=S(=O)(NC[C@@]1(O)CNCCO[C@@H]1c1ccc(Cl)c(Cl)c1)C(F)F (racemic) [Example 521, monohydrochloride] = 76
• CS(=O)(=O)NC[C@@H]1CNCCO[C@H]1c1ccc(Cl)c(Cl)c1 [Example 34, monohydrochloride] = 75
• OC[C@H]1CNCCO[C@@H]1c1ccc(Cl)c(Cl)c1 [Example 73, monohydrochloride] = 64

Noted for CO[C@@]1(CNC(C)=O)CNCCO[C@H]1c1ccc(Cl)c(F)c1 (relative stereo) : its inhibition at 1 µM reads 1

Noted for CS(=O)(=O)NC[C@@]1(O)CNCCO[C@@H]1c1ccc(Cl)c(Cl)c1 (racemic) [Example 162, monohydrochloride] : its inhibition at 1 µM reads 40
